The values you see were collected from patent US20190177417A1.

Target: T1, Axl protein (human, UniProt P30530 26-451)
T1 construct: extracellular domain; also called human Axl; hAxl
T1 sequence (looked up): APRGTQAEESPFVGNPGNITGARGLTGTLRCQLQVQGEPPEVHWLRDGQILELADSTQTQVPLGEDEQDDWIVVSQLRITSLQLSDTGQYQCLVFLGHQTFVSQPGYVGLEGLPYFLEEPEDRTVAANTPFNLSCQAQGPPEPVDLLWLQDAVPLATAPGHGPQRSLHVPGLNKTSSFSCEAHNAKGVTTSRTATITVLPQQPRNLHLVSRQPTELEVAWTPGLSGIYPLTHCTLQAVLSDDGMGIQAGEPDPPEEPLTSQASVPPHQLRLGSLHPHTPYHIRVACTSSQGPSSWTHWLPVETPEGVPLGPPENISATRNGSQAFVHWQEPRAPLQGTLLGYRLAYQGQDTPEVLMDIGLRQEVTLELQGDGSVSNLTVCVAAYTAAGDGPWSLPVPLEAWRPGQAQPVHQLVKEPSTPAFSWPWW
Assay: ELISA, 1:3 dilution, pH 6.0 over pH 7.4
PARAMETER: Affinity ELISA CPE mutant ratio (1:3, pH 6.0/7.4) (ratio)
Dear colleague, please return just the value in ratio, with no unit written.

Lookup: Affinity ELISA CPE mutant ratio (1:3, pH 6.0/7.4) lookup needed for HC-E102A (antibody, V domains shown) VH: EVQLVQSGAEVKKPGATVKISCKVSGYSFTGHTMNWIRQPPGKGLEWIGLIKPSNGGTSYNQKFKGRVTISADKSISTAYLQWSSLKASDTAMYYCAHGHYASYFAMDYWGQGTLVTVSS VL: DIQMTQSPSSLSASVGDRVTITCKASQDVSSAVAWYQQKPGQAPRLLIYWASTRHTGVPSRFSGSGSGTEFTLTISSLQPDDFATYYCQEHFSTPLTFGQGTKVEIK , thanks.
Found: 1.54

Lookup: // Affinity ELISA CPE mutant ratio (1:3, pH 6.0/7.4) lookup, key: HC-F105S (antibody, V domains shown) VH: EVQLVQSGAEVKKPGATVKISCKVSGYSFTGHTMNWIRQPPGKGLEWIGLIKPSNGGTSYNQKFKGRVTISADKSISTAYLQWSSLKASDTAMYYCAHGHYESYSAMDYWGQGTLVTVSS VL: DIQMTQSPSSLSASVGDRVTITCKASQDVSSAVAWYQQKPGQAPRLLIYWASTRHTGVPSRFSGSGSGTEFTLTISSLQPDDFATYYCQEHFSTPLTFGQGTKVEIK
Found: 3.9
